- Tested on: SCC-3 (B-Cell Non-Hodgkin's Lymphoma)
- assay.name: combination Emax (second highest fraction inhibited in the dose matrix, 72 h); higher = more inhibition; extreme values may be limits of the assay
reported.metric: combination Emax
Simply state the number, no unit and no words.

Use the examples below as a reference point.
[
  {
    "compound": "CN(CCO)CC[C@H](CSc1ccccc1)Nc1ccc(S(=O)(=O)NC(=O)c2ccc(N3CCC([C@@H](O)c4ccccc4-c4ccc(Cl)cc4)CC3)cc2)cc1S(=O)(=O)C(F)(F)F [AZD4320] + CN(C)CCCOc1ccc(-c2ccc3ncc4c(c3c2)n(C2CCOCC2)c(=O)n4C)cn1 [AZD0156] (first compound max 1 µM, 7x7, partner max 1 µM)",
    "endpoint.value": 0.361
  },
  {
    "compound": "C[C@@H]1COCCN1c1cc(C2([S@](C)(=N)=O)CC2)nc(-c2ccnc3[nH]ccc23)n1 [AZD6738] + O=C(c1cc(Cc2n[nH]c(=O)c3ccccc23)ccc1F)N1CCN(C(=O)C2CC2)CC1 [Olaparib] (first compound max 10 µM, 7x7, partner max 10 µM)",
    "endpoint.value": 0.994
  },
  {
    "compound": "CC1(C)CCC(CN2CCN(c3ccc(C(=O)NS(=O)(=O)c4ccc(NCC5CCOCC5)c([N+](=O)[O-])c4)c(Oc4cnc5[nH]ccc5c4)c3)CC2)=C(c2ccc(Cl)cc2)C1 [Venetoclax] + COc1cc(Nc2ncc3c(n2)-c2ccc(Cl)cc2C(c2c(F)cccc2OC)=NC3)ccc1C(=O)O [Alisertib] (first compound max 1 µM, 7x7, partner max 10 µM)",
    "endpoint.value": 0.893
  },
  {
    "compound": "CCN(CCO)CCCOc1ccc2c(Nc3cc(CC(=O)Nc4cccc(F)c4)[nH]n3)ncnc2c1 [AZD2811] + O=C(c1cc(Cc2n[nH]c(=O)c3ccccc23)ccc1F)N1CCN(C(=O)C2CC2)CC1 [Olaparib] (first compound max 1 µM, 7x7, partner max 10 µM)",
    "endpoint.value": 0.488
  }
]

// switching to the query compound
According to the records, this compound CCc1c2c(nc3ccc(O)cc13)-c1cc3c(c(=O)n1C2)COC(=O)[C@]3(O)CC [SN-38] + CN(C)CCCOc1ccc(-c2ccc3ncc4c(c3c2)n(C2CCOCC2)c(=O)n4C)cn1 [AZD0156] (first compound max 0.3 µM, 7x7, partner max 1 µM) displays combination Emax of 1
